# STUDY TARGET: T1, human CDH6 with EC2 removed, on HEK293T cells (HEK293T-hCDH6-EC2 deletion) (human, UniProt P55285 54-790)
# T1 construct: Signal peptide not removed here
# T1 sequence: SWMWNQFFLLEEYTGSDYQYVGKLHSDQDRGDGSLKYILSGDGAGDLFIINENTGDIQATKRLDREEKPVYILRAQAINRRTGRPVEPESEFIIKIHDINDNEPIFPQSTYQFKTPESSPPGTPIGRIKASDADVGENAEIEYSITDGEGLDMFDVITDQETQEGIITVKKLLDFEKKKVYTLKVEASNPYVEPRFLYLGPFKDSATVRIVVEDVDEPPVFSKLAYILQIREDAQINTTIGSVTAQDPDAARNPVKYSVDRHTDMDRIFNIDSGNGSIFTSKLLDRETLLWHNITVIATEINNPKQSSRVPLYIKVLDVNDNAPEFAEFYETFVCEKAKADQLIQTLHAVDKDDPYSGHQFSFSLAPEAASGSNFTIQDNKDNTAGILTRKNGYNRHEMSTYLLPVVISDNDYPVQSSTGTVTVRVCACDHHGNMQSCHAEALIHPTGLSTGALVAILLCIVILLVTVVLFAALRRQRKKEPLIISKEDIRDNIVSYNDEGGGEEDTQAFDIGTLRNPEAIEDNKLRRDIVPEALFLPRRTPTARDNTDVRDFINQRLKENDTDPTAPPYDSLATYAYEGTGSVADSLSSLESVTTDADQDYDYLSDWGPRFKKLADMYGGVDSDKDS
# PROCEDURE SUMMARY: FACS, HEK293T-hCDH6-EC2 deletion cells
I'd appreciate it if you could supply Max MFI values for the items below.
Number plus unit, in that order.

Retrieve Max MFI measured for NOV0712 (antibody, human IgG1, kappa, V domains shown, Positive control, variable regions from WO2018212136A1; also called positive control anti-human CDH6 antibody) VH: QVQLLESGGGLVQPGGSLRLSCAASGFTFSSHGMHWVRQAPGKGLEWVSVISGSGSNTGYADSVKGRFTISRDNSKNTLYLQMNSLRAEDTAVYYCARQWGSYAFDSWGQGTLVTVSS VL: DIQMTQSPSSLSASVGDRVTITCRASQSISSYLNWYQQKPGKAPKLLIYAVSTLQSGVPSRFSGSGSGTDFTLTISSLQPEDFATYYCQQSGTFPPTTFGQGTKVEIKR and print it. 39100 MFI

Retrieve Max MFI measured for CHI-CDH6-5 (antibody, human IgG1, kappa, V domains shown, also called CH1-CDH6-5; chimeric antibody of murine CDH6-5) VH: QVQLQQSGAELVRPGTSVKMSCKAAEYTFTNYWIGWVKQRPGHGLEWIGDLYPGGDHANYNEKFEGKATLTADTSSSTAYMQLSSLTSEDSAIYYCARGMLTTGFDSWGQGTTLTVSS VL: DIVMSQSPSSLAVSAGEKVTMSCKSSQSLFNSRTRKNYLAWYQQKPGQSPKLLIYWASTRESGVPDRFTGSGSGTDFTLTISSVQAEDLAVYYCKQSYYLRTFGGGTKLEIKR and print it. 343 MFI

Retrieve Max MFI measured for CHI-CDH6-7 (antibody, human IgG1, kappa, V domains shown, also called CH1-CDH6-7; chimeric antibody of murine CDH6-7) VH: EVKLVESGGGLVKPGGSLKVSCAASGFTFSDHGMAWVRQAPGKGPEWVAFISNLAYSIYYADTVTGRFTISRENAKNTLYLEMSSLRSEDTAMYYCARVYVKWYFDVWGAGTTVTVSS VL: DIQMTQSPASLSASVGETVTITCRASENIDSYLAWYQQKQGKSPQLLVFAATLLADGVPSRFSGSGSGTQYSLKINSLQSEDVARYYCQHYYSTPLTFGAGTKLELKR and print it. 13000 MFI
